# targetOfAssay: human IRAK4 FL (Full Length) (Homo sapiens (Human))
# Sequence (Q9NWZ3 whole entry): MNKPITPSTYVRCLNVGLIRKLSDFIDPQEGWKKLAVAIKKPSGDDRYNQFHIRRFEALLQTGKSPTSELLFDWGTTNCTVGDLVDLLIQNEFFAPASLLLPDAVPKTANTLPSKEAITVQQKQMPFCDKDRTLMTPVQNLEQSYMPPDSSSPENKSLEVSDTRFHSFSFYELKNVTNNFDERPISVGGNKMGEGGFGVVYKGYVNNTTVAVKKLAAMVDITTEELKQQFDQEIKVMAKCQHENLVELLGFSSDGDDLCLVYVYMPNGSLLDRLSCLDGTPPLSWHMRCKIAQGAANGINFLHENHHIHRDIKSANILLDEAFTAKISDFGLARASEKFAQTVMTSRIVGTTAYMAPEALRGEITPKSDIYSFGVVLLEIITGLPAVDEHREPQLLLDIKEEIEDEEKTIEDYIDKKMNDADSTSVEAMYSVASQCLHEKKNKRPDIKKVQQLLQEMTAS
# experimentSummary: IRAK4 Enzymatic DELFIA Assay, Protocol A
# Type: biochemical
# testContext: human IRAK4 FL, 0.6 mM ATP (KM); read-out: IRAK4 DELFIA Protocol A IC50
observedProperty: IC50

Challenge: Query (molecule): "COC[C@H]1[C@H]2C(=O)N[C@H](COc3nccc4cc(C(N)=O)c(OC)cc34)[C@@H]12" ; field requested: IC50
Response given: 1980 nM

Challenge: Query (molecule): "COc1cc2c(OC[C@H]3COC(=O)N3)nccc2cc1C(N)=O" ; field requested: IC50
Response given: 3510 nM

Challenge: Query (molecule): "CC(C)Oc1cc2c(OC[C@@H]3CCCC(=O)N3)nccc2cc1C(N)=O" ; field requested: IC50
Response given: 51 nM

Challenge: Query (molecule): "COc1cc2c(OC[C@H]3NC(=O)[C@H]4[C@@H]3[C@]4(C)F)nccc2cc1C(N)=O" ; field requested: IC50
Response given: 4 nM
